- test.protocol: Half life in mouse 3 mg/kg, iv
- Type: ADME, organism-based
- condition.info: in vivo
Provide the reported half-life of each item.
Please provide the amount together with its unit, number first.

Q: Item under review: CC(C)(C)NC(=O)C(=O)[C@H](C[C@@H]1CCNC1=O)NC(=O)[C@@H]1[C@H]2CCC[C@H]2CN1C(=O)[C@@H](NC(=O)C(F)(F)F)C1CCCC1 . Reported half-life?
Ans: 196 min

Q: Please look up its half-life: CC(C)(C)[C@H](NC(=O)C(F)(F)F)C(=O)N1C[C@H]2[C@@H]([C@H]1C(=O)N[C@H](C#N)C[C@@H]1CCNC1=O)C2(C)C
Ans: 42.8 min

Q: Report half-life for N#C[C@H](C[C@@H]1CCNC1=O)NC(=O)[C@@H]1[C@H]2CCC[C@H]2CN1C(=O)[C@@H](NC(=O)C(F)(F)F)C1CCCCC1 please.
Ans: 11.3 min

Q: Reported half-life for CC(C)(C)[C@H](NC(=O)C(F)(F)F)C(=O)N1C[C@@H]2CCC[C@@H]2[C@H]1C(=O)N[C@H](C#N)C[C@@H]1CCNC1=O : what is it?
Ans: 6.66 min

----------
- System: Human coronavirus OC43
- test.protocol: microbe, parasite or virus in culture
- condition.info: Betacoronavirus 1, MRC5, 120 h
endpoint.name: pEC50
When answering, recall that pEC50 equals minus log10 of the concentration in mol/L, and write that number alone.

Q: Which pEC50 value belongs to CC(C)(C)NC(=O)C(=O)[C@H](C[C@@H]1CCNC1=O)NC(=O)[C@@H]1[C@H]2CCC[C@H]2CN1C(=O)[C@@H](NC(=O)C(F)(F)F)C1CCCCC1 ?
Ans: 6.84

Q: Can you share its pEC50? I mean this compound: N#C[C@H](C[C@@H]1CCNC1=O)NC(=O)[C@@H]1[C@H]2CCC[C@H]2CN1C(=O)[C@@H](NC(=O)C(F)(F)F)c1ccc(F)cc1
Ans: 6.17

Q: Record request: pEC50 value, item CC(C)(C)NC(=O)C(=O)[C@H](C[C@@H]1CCNC1=O)NC(=O)[C@@H]1[C@H]2CCC[C@H]2CN1C(=O)[C@@H](NC(=O)C(F)(F)F)C1CC2(CCC2)C1
Ans: 6.35

----------
Answer each item with its documented EC50.
- Tested on: SARS-CoV-2
- test.protocol: microbe, parasite or virus in culture
- condition.info: Severe acute respiratory syndrome coronavirus 2, Vero, 24 h
# number only, unit nM dropped from output

Q: So what does the record say about EC50 for CC(C)(C)[C@H](NC(=O)C(F)(F)F)C(=O)N1C[C@@H]2CCC[C@@H]2[C@H]1C(=O)N[C@H](C#N)C[C@@H]1CCNC1=O ?
Ans: 64

Q: Please report the recorded EC50 for N#C[C@H](C[C@@H]1CCNC1=O)NC(=O)[C@@H]1[C@H]2CCC[C@H]2CN1C(=O)[C@@H](NC(=O)C(F)(F)F)C1CCCCC1 .
Ans: 43

Q: Consider the compound CC(C)(C)NC(=O)C(=O)[C@H](C[C@@H]1CCNC1=O)NC(=O)[C@@H]1[C@H]2CCC[C@H]2CN1C(=O)[C@@H](NC(=O)C(F)(F)F)C1CCCCC1 and give its measured EC50.
Ans: 53

----------
- test.protocol: Half life in rat 2 mg/kg, iv
- Type: ADME, organism-based
- condition.info: in vivo
endpoint.name: half-life (min)
Value expressed in min; do not type the unit.

Q: Which measured half-life value corresponds to CC(C)(C)NC(=O)C(=O)[C@H](C[C@@H]1CCNC1=O)NC(=O)[C@@H]1[C@H]2CCC[C@H]2CN1C(=O)[C@@H](NC(=O)C(F)(F)F)C1CCCCC1 ?
Ans: 262

Q: Quick check: half-life of CC(C)(C)[C@H](NC(=O)C(F)(F)F)C(=O)N1C[C@H]2[C@@H]([C@H]1C(=O)N[C@H](C#N)C[C@@H]1CCNC1=O)C2(C)C ?
Ans: 46.2

Q: State the recorded half-life for this entry: CC(C)(C)[C@H](NC(=O)C(F)(F)F)C(=O)N1C[C@@H]2CCC[C@@H]2[C@H]1C(=O)N[C@H](C#N)C[C@@H]1CCNC1=O
Ans: 14.3

Q: Name the reported half-life value associated with the molecule N#C[C@H](C[C@@H]1CCNC1=O)NC(=O)[C@@H]1[C@H]2CCC[C@H]2CN1C(=O)[C@@H](NC(=O)C(F)(F)F)C1CCCCC1
Ans: 22.7
